test: NCI Yeast Anticancer Drug Screen. Data for the bub3 strain (AID 167)
protocol-conditions: S. cerevisiae bub3 mutant strain, at 50.0 µM (retest, dose inferred, filed as 5.0), hits give high values
Compounds without any hit were thinned out: in the full panel of roughly 79,000, 15% have a hit.
measurement-label: growth inhibition (%)
The figure you give is taken to be in %; do not add the unit.

For orientation, consider the following solved cases.
C/C(=N/Nc1ccc([N+](=O)[O-])cc1[N+](=O)[O-])C(=O)O
72
COc1cc2c(c(O)c1OC)-c1c(cc(OC)c(OC)c1OC)CC(C)C(C)C2 (stereo unspecified)
53
O=C1/C(=C/c2ccc(Cl)cc2)CCC/C1=C\c1ccc(O)c(CN2CCCCC2)c1
17
OC(c1ccccc1)(c1ccccc1)C(F)(Cl)Cl
9
O=C(CC(=O)c1ccncc1)c1ccccc1
98
O=C(c1ccc(Br)cc1)C1OC12C(=O)Nc1ccccc12 (stereo unspecified)
99
Cc1cc(S(=O)(=O)Nc2nc(N)nc(N(C)C)n2)c(SC(C(=O)O)c2ccccc2)cc1Cl (stereo unspecified)
-17
CN=C(N)N/N=C(\C)c1ccc2c(c1)Cc1cc(Cl)ccc1-2
90
COC(=O)CCC(NC(=S)N/N=C(\C)c1cnc2ccccc2n1)C(=O)OC (stereo unspecified)
12
CN(c1ccccc1)N(C)c1ccccc1
5

Please find the next compound below.
Ask: Reported growth inhibition, compound COc1ccc2c3c(c4cc(OC)c(OC)cc4c2c1)CN1CCC[C@H]1[C@@H]3O : ____
Reply: 98

###

test: NCI Yeast Anticancer Drug Screen. Data for the mlh1 rad18 strain (AID 175)
protocol-conditions: S. cerevisiae mlh1 rad18 strain growth inhibition; at 50.0 µM (retest, dose inferred, filed as 5.0); hits give high values
About 79,000 compounds went through this panel and 15% of them were active in at least one assay; those are over-represented in the sample as a whole. Active and inactive are the calls of the source. Cut-off read from the data, not from the text of the source: active = growth inhibition above about 70%; inactive = the rest.
measurement-label: growth inhibition

COc1ccccc1NC(=O)/C(=C\N1C(=O)/C(=C/c2cc(OC)c(OC)c(OC)c2)SC1=S)C(C)=O
25% (inactive)
COc1cc(CCN=Cc2cc(Cl)cc(Cl)c2O)c([N+](=O)[O-])cc1OC
91% (active)

Ask: Quick check: growth inhibition of O=S(=O)(Nc1ccccc1)c1ccccc1C#Cc1ccccc1 ?
Reply: 95% (active)

Ask: Name the recorded growth inhibition for Cc1cc(C(O)(C(F)(F)F)C(F)(F)F)cc(C(O)(C(F)(F)F)C(F)(F)F)c1 .
Reply: 99% (active)

Ask: Any idea what its growth inhibition is? The molecule is Sc1ccccc1C1N(Cc2ccc(Cl)cc2)CCCN1Cc1ccc(Cl)cc1
Reply: 73% (active)

###

test: NCI Yeast Anticancer Drug Screen. Data for the bub3 strain (AID 167)
protocol-conditions: S. cerevisiae bub3 mutant strain, at 50.0 µM
Procedure: Growth inhibition of yeast strains with defined genetic alterations is measured as a screen for potential anti-cancer activity. Selected strains with alterations in DNA damage repair or cell cycle control were exposed to compounds and growth inhibition was measured relative to vehicle treated controls. The strain used in this assay is bub3
Compounds without any hit were thinned out: in the full panel of roughly 79,000, 15% have a hit. Calls of active or inactive are those of the source. Rule as the data show it: active = growth inhibition above about 70%; inactive = the rest.
Choose one outcome from this list and give only that: label 1 for active, label 0 for inactive

Solved entries:
COC(=O)C1=C(NC(=O)Nc2ccc(Cl)cc2)OC(C)(C)C1c1ccc(Cl)cc1 (stereo unspecified)
label 1
COc1cc(O)c2c(c1)C(O)C(O)CC1OC1C(=O)/C=C/CC(C)OC2=O (stereo unspecified)
label 1
N#CC1=CN(Cc2ccccc2)C(C#Cc2ccccc2)C=C1 (stereo unspecified)
label 1
CCOC(=O)c1cc(C)ccc1-c1ccc(C)cc1C(=O)OCC
label 1
COc1ccccc1OCC(COC(=O)Nc1ccc(C)cc1)OC(=O)Nc1ccc(C)cc1 (stereo unspecified)
label 1

Ask: Hey, what did the test say about CN1C(=O)c2ccccc2C1(c1ccccc1)c1ccccc1 ?
Reply: label 0

Ask: # fetch the recorded call for CC(C)CCC(C)(C)c1cc(O)ccc1O here
Reply: label 1

Ask: What was the test verdict on OC(CCN1CCOCC1)C1c2ccccc2Cc2ccccc21 (stereo unspecified) ?
Reply: label 0

Ask: Query: recorded result category for COc1ccc(CSC(=S)Nc2ccc(Cl)c([N+](=O)[O-])c2)cc1 in this test
Reply: label 0

Ask: Which outcome was assigned to CCOC(=O)/C(=C\c1ccc(Cl)cc1)C(C)=O in this test?
Reply: label 1

Ask: Could you kindly confirm the outcome this assay logged for COc1ccc(C2=C(Cl)C(=O)N(c3ccc(Cl)cc3)C(=O)C2(Cl)Cl)cc1 ?
Reply: label 1
